This collection of values is drawn from patent US20200247894A1.

Quick reference: t1/2 of the listed items.
tested target: T1, Macaca fascicularis IL2Rγ extracellular domain expressed with a C-terminal myc-myc-hexahistidine tag (Macaca fascicularis)
T1 construct: also called mfIL-2Rg-MMH; mfIL-2RG-MMH
T1 chain: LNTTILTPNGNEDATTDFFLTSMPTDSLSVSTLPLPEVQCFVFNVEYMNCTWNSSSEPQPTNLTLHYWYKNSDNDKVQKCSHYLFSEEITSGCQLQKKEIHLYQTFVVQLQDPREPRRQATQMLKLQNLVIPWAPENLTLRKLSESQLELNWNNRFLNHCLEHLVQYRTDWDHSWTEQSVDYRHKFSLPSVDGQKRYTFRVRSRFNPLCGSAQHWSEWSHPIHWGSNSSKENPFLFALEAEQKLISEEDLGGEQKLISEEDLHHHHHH
assay info: SPR Biacore 4000, mAb captured by anti-hFc, 37C, dissociation in PBS-T pH 7.4
# value in min; strip the unit string

Record excerpt, results attached:
1) H4H12858P (antibody, human IgG4 S228P, kappa, V domains shown, anti-IL2Rγ monoclonal antibody expressed with human IgG4 Fc; also called REGN9433) VH: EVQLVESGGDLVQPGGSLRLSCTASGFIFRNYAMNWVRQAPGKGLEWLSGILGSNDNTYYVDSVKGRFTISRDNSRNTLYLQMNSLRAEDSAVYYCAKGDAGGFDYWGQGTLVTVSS VL: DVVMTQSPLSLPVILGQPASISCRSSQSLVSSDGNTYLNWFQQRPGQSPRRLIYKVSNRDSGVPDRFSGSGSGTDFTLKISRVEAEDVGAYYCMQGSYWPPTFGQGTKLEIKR    21
2) H4H13541P (antibody, human IgG4 S228P, kappa, V domains shown, anti-IL2Rγ monoclonal antibody expressed with human IgG4 Fc) VH: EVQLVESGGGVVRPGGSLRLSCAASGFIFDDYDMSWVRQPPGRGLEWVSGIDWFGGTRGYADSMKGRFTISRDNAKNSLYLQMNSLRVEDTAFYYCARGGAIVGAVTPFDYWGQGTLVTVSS VL: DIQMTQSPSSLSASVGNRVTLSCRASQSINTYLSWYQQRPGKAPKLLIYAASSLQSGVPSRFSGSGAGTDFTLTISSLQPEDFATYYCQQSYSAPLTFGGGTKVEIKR    23
3) H4H12886P (antibody, human IgG4 S228P, kappa, V domains shown, anti-IL2Rγ monoclonal antibody expressed with human IgG4 Fc) VH: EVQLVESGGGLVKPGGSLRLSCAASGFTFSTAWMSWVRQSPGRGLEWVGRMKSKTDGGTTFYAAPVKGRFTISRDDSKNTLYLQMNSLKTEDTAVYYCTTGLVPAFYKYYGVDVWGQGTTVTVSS VL: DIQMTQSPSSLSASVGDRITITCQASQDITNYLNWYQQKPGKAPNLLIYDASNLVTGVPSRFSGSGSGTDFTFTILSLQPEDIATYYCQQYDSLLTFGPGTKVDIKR    25

GET /values?readout=t1/2&item= H4H12900P (antibody, human IgG4 S228P, kappa, V domains shown, anti-IL2Rγ monoclonal antibody expressed with human IgG4 Fc) VH: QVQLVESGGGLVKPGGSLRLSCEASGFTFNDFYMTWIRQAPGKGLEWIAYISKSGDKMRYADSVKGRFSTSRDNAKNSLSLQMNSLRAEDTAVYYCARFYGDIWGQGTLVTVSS VL: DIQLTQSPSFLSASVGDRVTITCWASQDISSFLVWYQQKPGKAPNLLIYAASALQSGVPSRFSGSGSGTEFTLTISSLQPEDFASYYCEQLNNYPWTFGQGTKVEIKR
19

Quick one: t1/2 of H4H12863P (antibody, human IgG4 S228P, kappa, V domains shown, anti-IL2Rγ monoclonal antibody expressed with human IgG4 Fc) VH: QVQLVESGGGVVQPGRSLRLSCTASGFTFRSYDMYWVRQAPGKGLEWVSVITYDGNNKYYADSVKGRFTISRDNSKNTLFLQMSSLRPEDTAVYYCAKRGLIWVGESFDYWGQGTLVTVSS VL: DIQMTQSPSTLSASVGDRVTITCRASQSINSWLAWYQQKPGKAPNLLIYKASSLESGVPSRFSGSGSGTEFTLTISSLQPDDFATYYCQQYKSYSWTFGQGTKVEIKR ?
19

Look up t1/2: H4H12889P (antibody, human IgG4 S228P, kappa, V domains shown, anti-IL2Rγ monoclonal antibody expressed with human IgG4 Fc; also called REGN7257) VH: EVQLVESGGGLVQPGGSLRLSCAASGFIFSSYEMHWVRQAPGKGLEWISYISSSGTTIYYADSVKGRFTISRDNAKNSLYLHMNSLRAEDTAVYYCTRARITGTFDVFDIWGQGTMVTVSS VL: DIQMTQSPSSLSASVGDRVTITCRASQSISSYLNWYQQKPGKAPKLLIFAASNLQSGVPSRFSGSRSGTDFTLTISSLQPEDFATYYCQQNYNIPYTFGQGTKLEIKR
20

Give its t1/2 value. Item: H4H12874P (antibody, human IgG4 S228P, kappa, V domains shown, anti-IL2Rγ monoclonal antibody expressed with human IgG4 Fc) VH: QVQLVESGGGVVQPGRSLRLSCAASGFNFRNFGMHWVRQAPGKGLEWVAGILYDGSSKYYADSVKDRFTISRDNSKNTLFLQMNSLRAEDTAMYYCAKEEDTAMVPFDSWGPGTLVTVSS VL: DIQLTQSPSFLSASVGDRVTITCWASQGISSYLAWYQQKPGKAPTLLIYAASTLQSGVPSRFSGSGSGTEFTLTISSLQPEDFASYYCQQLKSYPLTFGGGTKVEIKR
21
